Test: Plasma clearance in C57BL/6 mouse
Assay type: ADME, organism-based
measured-metric: clearance (mL/min/kg)

(a) C[C@@H]1CCC(C(=O)O)=C(NC(=O)[C@@H](N)Cc2nc(-c3ccc(O)cn3)no2)C1
(b) C[C@@H]1CCC(C(=O)O)=C(NC(=O)[C@@H](N)Cc2nc(-c3ccc(F)cn3)no2)C1
Prompt: Hello, I am sorting some records. Could you say if a or b has the smaller clearance value? Answer by quoting the chosen item's label.
Response: b

====

Experiment: Half life in Sprague-Dawley rat
Type: ADME, organism-based
Settings: in vivo
measured-metric: half-life (h)

| smiles-str | measurement-units | half-life |
| --- | --- | --- |
| N[C@@H](Cc1nc(-c2ccc(O)cn2)no1)C(=O)NC1=C(C(=O)O)CCCC1 | h | 2.3 |

(a) C[C@@H]1CCC(C(=O)O)=C(NC(=O)[C@@H](N)Cc2nc(-c3ccc(F)cn3)no2)C1
(b) O=C(CCc1nc(-c2ccc(O)cn2)no1)NC1=C(C(=O)O)CCCC1
Prompt: Select the item whose half-life value is smaller, choosing between a and b . Write the label of whichever entry you select.
Response: b
